Tested on: Staphylococcus aureus OWPH 1984 (MRSA)
Test: Determination of minimal inhibitory concentration of growth (MIC)-1, agar plate dilution method
Assay type: cell-based
Settings: Staphylococcus aureus, MRSA, 18 h, Staphylococcus aureus OWPH 1984 (MRSA); agar plate dilution, 10⁶ CFU/ml, 37°C, 18 hours; read-out: MIC
OBSERVATION_TYPE: MIC (µg/mL)

The following compounds have reported results that may help.
[[record]]
compound = "Nc1ccc(-c2cc3c(cc2F)c(=O)c(C(=O)O)c2n3CS2)cc1"
observation_type = "MIC"
number = 0.025

[[record]]
compound = "CCNc1ccc(-c2cc3c(cc2F)c(=O)c(C(=O)O)c2n3C(C)S2)cc1 (centres unmarked)"
observation_type = "MIC"
number = 0.025

[[record]]
compound = "CC1Sc2c(C(=O)O)c(=O)c3cc(F)c(-c4ccccc4)c(F)c3n21 (centres unmarked)"
observation_type = "MIC"
number = 0.012


[I] CNc1ccc(-c2c(F)cc3c(=O)c(C(=O)O)c4n(c3c2OC)C(C)S4)cc1 (centres unmarked)
[II] COc1c(-c2ccccc2)c(F)cc2c(=O)c(C(=O)O)c3n(c12)C(C)S3 (centres unmarked)
[III] CC1Sc2c(C(=O)O)c(=O)c3cc(F)c(N4CCNCC4)cc3n21 (centres unmarked) [Control, reference compound]
Challenge: Put the items in sequence by MIC, from largest down. Lab note: final answer is the ordered label list.
Response given: III, II, I
